# study target: Phosphatidylinositol 4,5-bisphosphate 3-kinase catalytic subunit alpha isoform (Homo sapiens)
# Sequence (P42336 whole entry, canonical isoform): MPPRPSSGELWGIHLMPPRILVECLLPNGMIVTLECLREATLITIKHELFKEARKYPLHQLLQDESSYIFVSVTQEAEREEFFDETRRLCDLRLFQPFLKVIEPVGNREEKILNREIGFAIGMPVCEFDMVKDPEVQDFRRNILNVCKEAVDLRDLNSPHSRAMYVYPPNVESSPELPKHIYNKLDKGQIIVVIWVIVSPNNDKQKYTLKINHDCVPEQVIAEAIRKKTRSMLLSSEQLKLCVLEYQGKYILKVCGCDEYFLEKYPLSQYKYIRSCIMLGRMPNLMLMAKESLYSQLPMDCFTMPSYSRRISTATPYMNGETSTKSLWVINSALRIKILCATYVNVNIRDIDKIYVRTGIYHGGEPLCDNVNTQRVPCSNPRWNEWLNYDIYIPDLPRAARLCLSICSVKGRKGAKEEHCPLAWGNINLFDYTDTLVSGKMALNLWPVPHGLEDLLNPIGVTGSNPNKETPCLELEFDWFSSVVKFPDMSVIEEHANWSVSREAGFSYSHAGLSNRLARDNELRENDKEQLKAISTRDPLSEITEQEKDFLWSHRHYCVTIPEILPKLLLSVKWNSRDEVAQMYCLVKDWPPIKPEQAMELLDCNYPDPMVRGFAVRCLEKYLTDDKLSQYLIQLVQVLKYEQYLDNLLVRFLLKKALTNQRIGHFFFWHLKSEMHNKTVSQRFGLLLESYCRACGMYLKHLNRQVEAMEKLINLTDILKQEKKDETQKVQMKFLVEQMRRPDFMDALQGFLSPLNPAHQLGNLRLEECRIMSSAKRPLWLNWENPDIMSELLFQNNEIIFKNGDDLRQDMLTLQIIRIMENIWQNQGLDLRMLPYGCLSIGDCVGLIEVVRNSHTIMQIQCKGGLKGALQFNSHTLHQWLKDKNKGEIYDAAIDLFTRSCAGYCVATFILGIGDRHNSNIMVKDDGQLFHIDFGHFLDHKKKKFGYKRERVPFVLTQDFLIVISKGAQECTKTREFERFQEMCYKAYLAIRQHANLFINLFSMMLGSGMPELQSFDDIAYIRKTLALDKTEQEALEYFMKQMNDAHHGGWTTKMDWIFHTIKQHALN
# protocol description: Inhibition of PI3Kalpha by LanthaScreen Eu kinase binding assay
pIC50: −log10 of the molar value.
measurement label: pIC50

Example entries begin here.
In [3]: df
Out[3]:
                            chemical_smiles  measurement_label  test_result
0              C(#Cc1n[nH]c2ccccc12)c1ccsc1              pIC50       < 4.00
1         Fc1cc(F)cc(C#Cc2n[nH]c3ccccc23)c1              pIC50       < 4.00
2                C(#CC1CC1)c1n[nH]c2ccccc12              pIC50       < 4.00
3             C(#Cc1n[nH]c2ncccc12)c1cccnc1              pIC50         5.05
4  FC(F)(F)c1cc(C#Cc2n[nH]c3ccccc23)cc(C(F)(F)F)c1              pIC50       < 4.00

Entry under review: N#Cc1ccc(C#Cc2n[nH]c3ccccc23)cc1 . Reported pIC50?
< 4.00

One more compound: C(#Cc1n[nH]c2ccccc12)c1ccccn1
< 4.00
